# Study System: T1, human GM-CSF (granulocyte macrophage-colony stimulating factor) (human, UniProt P04141 18-144)
# T1 construct: Soluble cytokine used in ELISA, SPR, TF-1 bioassay and immune complex formation; also called recombinant GM-CSF
# T1 sequence (P04141 18-144 limits assumed): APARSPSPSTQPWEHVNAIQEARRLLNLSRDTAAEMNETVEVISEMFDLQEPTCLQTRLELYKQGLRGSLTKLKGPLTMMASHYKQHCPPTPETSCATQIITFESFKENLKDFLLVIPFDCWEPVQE
# Test Description: SPR (ProteOn), mAb captured on protein A, GM-CSF as analyte, Langmuir fit
kon values for the binders below.

Binder: Namilumab (antibody, V domains shown) VH: QVQLVQSGAEVKKPGASVKVSCKAFGYPFTDYLLHWVRQAPGQGLEWVGWLNPYSGDTNYAQKFQGRVTMTRDTSISTAYMELSRLRSDDTAVYYCTRTTLISVYFDYWGQGTMVTVSS VL: DIQMTQSPSSVSASVGDRVTIACRASQNIRNILNWYQQRPGKAPQLLIYAASNLQSGVPSRFSGSGSGTDFTLTINSLQPEDFATYYCQQSYSMPRTFGGGTKLEIK
kon / M⁻¹ s⁻¹: 310000
--
Binder: GCB59 (antibody, IgG1, V domains shown, also called GCB59 antibody) VH: EVQLVESGGDLVKAGGSLRLSCAVSGLSFSSSGMNWVRQAPGKGLEWISSISGSQNYKYYADSVKGRFVVSRDNARNFLYLQMDSLRAEDTAVYFCVGGFPYWLPPSDFSGFHVWGQGTTVTVSS VL: SYVLTQPPSVSVAPGQTASLTCGGTNIGSKSVHWYQQKAGQAPVLVVYADNDRPSGVPERFSGSNSGNTATLTISRVEAEDESDYFCQVWDGNTDHVVFGGGTKLTVLG
kon / M⁻¹ s⁻¹: 1.7e+06
--
Binder: GCA21 (antibody, IgG1, V domains shown, also called GCA21 antibody) VH: QVQLMESGGGVVQPGRSLRLSCSAFGFTFSNYPMHWVRQAPGKGLEWVAIILPDGNRKNYGRSVTGRFTISRDNSNNSLYLQMNNLTTEDTAMYYCTRDGTYYSNGGVYQTYRRFFDFWGRGTLVTVSS VL: DIQMTQSPSTLSTSVGDRVTITCRASQNILNWLAWYQQKPGNAPNLLIYKASDLQSGVPSRFSGSGSGTEFTLTISSLQPDDFATYYCQHYNSYPLTFGGGTKVEIKR
kon / M⁻¹ s⁻¹: 950000

Provenance of the data: patent US20200362026A1
